- Test system: NOMO-1 (Acute Myeloid Leukemia)
- experiment: combination Emax (second highest fraction inhibited in the dose matrix, 72 h); higher = more inhibition; extreme values may be limits of the assay

compound	study.system	combination Emax
CC1(C)CCC(CN2CCN(c3ccc(C(=O)NS(=O)(=O)c4ccc(NCC5CCOCC5)c([N+](=O)[O-])c4)c(Oc4cnc5[nH]ccc5c4)c3)CC2)=C(c2ccc(Cl)cc2)C1 [Venetoclax] + CN(C)CCCOc1ccc(-c2ccc3ncc4c(c3c2)n(C2CCOCC2)c(=O)n4C)cn1 [AZD0156] (first compound max 1 µM, 7x7, partner max 1 µM)	NOMO-1 (Acute Myeloid Leukemia)	0.912
Cc1c2c(nn1C)CSCc1cc(n(C)n1)CSc1cc(c3ccccc3c1)OCCCc1c(C(=O)O)n(C)c3c-2c(Cl)ccc13 [AZD5991] + Cc1cc2ncnn2cc1Nc1ncc2c(n1)n(C1CCOCC1)c(=O)n2C [AZD7648] (first compound max 1 µM, 7x7, partner max 10 µM)	NOMO-1 (Acute Myeloid Leukemia)	0.865
COc1cccc(OCCCN)c1-c1cc(Nc2cnc(C#N)cn2)n[nH]1 [Prexasertib] + Cc1cc2ncnn2cc1Nc1ncc2c(n1)n(C1CCOCC1)c(=O)n2C [AZD7648] (first compound max 1 µM, 7x7, partner max 10 µM)	NOMO-1 (Acute Myeloid Leukemia)	1
CC1(C)CCC(CN2CCN(c3ccc(C(=O)NS(=O)(=O)c4ccc(NCC5CCOCC5)c([N+](=O)[O-])c4)c(Oc4cnc5[nH]ccc5c4)c3)CC2)=C(c2ccc(Cl)cc2)C1 [Venetoclax] + Cn1cnc2c(F)c(Nc3ccc(Br)cc3Cl)c(C(=O)NOCCO)cc21 [Selumetinib] (first compound max 1 µM, 7x7, partner max 3 µM)	NOMO-1 (Acute Myeloid Leukemia)	0.994
CC(=O)Nc1cccc(-n2c(=O)n(C3CC3)c(=O)c3c(Nc4ccc(I)cc4F)n(C)c(=O)c(C)c32)c1 [Trametinib] + Cc1nc(-c2cn3c(n2)-c2ccc(-c4cnn(C(C)(C)C(N)=O)c4)cc2OCC3)n(C(C)C)n1 [Taselisib] (first compound max 1 µM, 7x7, partner max 10 µM)	NOMO-1 (Acute Myeloid Leukemia)	0.98
COc1cc2ncnc(Nc3ccc(F)c(Cl)c3)c2cc1OCCCN1CCOCC1 [Gefitinib] + CC(C)n1c(=O)n(C)c2cnc3cc(F)c(-c4ccc(OCCCN5CCCCC5)nc4)cc3c21 [AZD1390] (first compound max 10 µM, 7x7, partner max 0.3 µM)	NOMO-1 (Acute Myeloid Leukemia)	0.328
CN(C)CCCOc1ccc(-c2ccc3ncc4c(c3c2)n(C2CCOCC2)c(=O)n4C)cn1 [AZD0156] + C=CCn1c(=O)c2cnc(Nc3ccc(N4CCN(C)CC4)cc3)nc2n1-c1cccc(C(C)(C)O)n1 [AZD1775] (first compound max 1 µM, partner max 1 µM)	NOMO-1 (Acute Myeloid Leukemia)	0.96
O=C(c1cc(Cc2n[nH]c(=O)c3ccccc23)ccc1F)N1CCN(C(=O)C2CC2)CC1 [Olaparib] + COc1nnc2ccc(N3CCC(c4ccc(OCCN5CCN(C)C(=O)[C@H]5C)cc4)CC3)nn12 [AZD5153] (first compound max 10 µM, 7x7, partner max 1 µM)	NOMO-1 (Acute Myeloid Leukemia)	0.939
CC1(C)CCC(CN2CCN(c3ccc(C(=O)NS(=O)(=O)c4ccc(NCC5CCOCC5)c([N+](=O)[O-])c4)c(Oc4cnc5[nH]ccc5c4)c3)CC2)=C(c2ccc(Cl)cc2)C1 [Venetoclax] + Cc1cc2ncnn2cc1Nc1ncc2c(n1)n(C1CCOCC1)c(=O)n2C [AZD7648] (first compound max 1 µM, 7x7, partner max 10 µM)	NOMO-1 (Acute Myeloid Leukemia)	0.922
Cc1c2c(nn1C)CSCc1cc(n(C)n1)CSc1cc(c3ccccc3c1)OCCCc1c(C(=O)O)n(C)c3c-2c(Cl)ccc13 [AZD5991] + CS(=O)(=O)CCNCc1ccc(-c2ccc3ncnc(Nc4ccc(OCc5cccc(F)c5)c(Cl)c4)c3c2)o1 [Lapatinib] (first compound max 1 µM, 7x7, partner max 10 µM)	NOMO-1 (Acute Myeloid Leukemia)	0.88
CN(C)CCCOc1ccc(-c2ccc3ncc4c(c3c2)n(C2CCOCC2)c(=O)n4C)cn1 [AZD0156] + O=C(c1cc(Cc2n[nH]c(=O)c3ccccc23)ccc1F)N1CCN(C(=O)C2CC2)CC1 [Olaparib] (first compound max 3 µM, partner max 3 µM)	NOMO-1 (Acute Myeloid Leukemia)	0.321
CN(CCO)CC[C@H](CSc1ccccc1)Nc1ccc(S(=O)(=O)NC(=O)c2ccc(N3CCC([C@@H](O)c4ccccc4-c4ccc(Cl)cc4)CC3)cc2)cc1S(=O)(=O)C(F)(F)F [AZD4320] + C=CCn1c(=O)c2cnc(Nc3ccc(N4CCN(C)CC4)cc3)nc2n1-c1cccc(C(C)(C)O)n1 [AZD1775] (first compound max 1 µM, partner max 1 µM)	NOMO-1 (Acute Myeloid Leukemia)	0.97
CS(=O)(=O)CCNCc1ccc(-c2ccc3ncnc(Nc4ccc(OCc5cccc(F)c5)c(Cl)c4)c3c2)o1 [Lapatinib] + NC1(c2ccc(-c3nc4ccn5c(=O)[nH]nc5c4cc3-c3ccccc3)cc2)CCC1 [MK-2206] (first compound max 10 µM, 7x7, partner max 10 µM)	NOMO-1 (Acute Myeloid Leukemia)	0.778

----------
- Tested on: SNG-M (Endometrial Carcinoma)
- experiment: combination Emax (second highest fraction inhibited in the dose matrix, 72 h); higher = more inhibition; extreme values may be limits of the assay
I would appreciate it if you labelled entries class 1 when combination Emax is 0.8 or higher, otherwise class 0.

molecule	study.system	category.label
CN(CCO)CC[C@H](CSc1ccccc1)Nc1ccc(S(=O)(=O)NC(=O)c2ccc(N3CCC([C@@H](O)c4ccccc4-c4ccc(Cl)cc4)CC3)cc2)cc1S(=O)(=O)C(F)(F)F [AZD4320] + Nc1ccn([C@@H]2O[C@H](CO)[C@@H](O)C2(F)F)c(=O)n1 [Gemcitabine] (first compound max 1 µM, 7x7, partner max 0.3 µM)	SNG-M (Endometrial Carcinoma)	class 1
COc1nnc2ccc(N3CCC(c4ccc(OCCN5CCN(C)C(=O)[C@H]5C)cc4)CC3)nn12 [AZD5153] + CCN(CCO)CCCOc1ccc2c(Nc3cc(CC(=O)Nc4cccc(F)c4)[nH]n3)ncnc2c1 [AZD2811] (first compound max 1 µM, 7x7, partner max 1 µM)	SNG-M (Endometrial Carcinoma)	class 0
Cc1cc2ncnn2cc1Nc1ncc2c(n1)n(C1CCOCC1)c(=O)n2C [AZD7648] + C[C@@H]1COCCN1C2=NC(=NC(=C2)C3(CC3)[S@](=N)(=O)C)C4=C5C=CNC5=NC=C4 [AZD6738] (first compound max 10 µM, 7x7, partner max 10 µM)	SNG-M (Endometrial Carcinoma)	class 1
CCc1c2c(nc3ccc(O)cc13)-c1cc3c(c(=O)n1C2)COC(=O)[C@]3(O)CC [SN-38] + CN(C)CCCOc1ccc(-c2ccc3ncc4c(c3c2)n(C2CCOCC2)c(=O)n4C)cn1 [AZD0156] (first compound max 0.3 µM, 7x7, partner max 1 µM)	SNG-M (Endometrial Carcinoma)	class 0
C=CCn1c(=O)c2cnc(Nc3ccc(N4CCN(C)CC4)cc3)nc2n1-c1cccc(C(C)(C)O)n1 [AZD1775] + Nc1ccn([C@@H]2O[C@H](CO)[C@@H](O)C2(F)F)c(=O)n1 [Gemcitabine] (first compound max 1 µM, partner max 0.3 µM)	SNG-M (Endometrial Carcinoma)	class 0
COc1cccc(OCCCN)c1-c1cc(Nc2cnc(C#N)cn2)n[nH]1 [Prexasertib] + Cc1cc2ncnn2cc1Nc1ncc2c(n1)n(C1CCOCC1)c(=O)n2C [AZD7648] (first compound max 1 µM, 7x7, partner max 10 µM)	SNG-M (Endometrial Carcinoma)	class 1

----------
As shown below, each of these compounds has a reported combination Emax value.
- Test system: BICR78 (Oral Cavity Carcinoma)
- experiment: combination Emax (second highest fraction inhibited in the dose matrix, 72 h); higher = more inhibition; extreme values may be limits of the assay

compound	combination Emax
COc1cccc(OCCCN)c1-c1cc(Nc2cnc(C#N)cn2)n[nH]1 [Prexasertib] + O=C(c1cc(Cc2n[nH]c(=O)c3ccccc23)ccc1F)N1CCN(C(=O)C2CC2)CC1 [Olaparib] (first compound max 1 µM, 7x7, partner max 10 µM)	0.679
C[C@@H]1COCCN1c1cc(C2([S@](C)(=N)=O)CC2)nc(-c2ccnc3[nH]ccc23)n1 [AZD6738] + Nc1ccn([C@@H]2O[C@H](CO)[C@@H](O)C2(F)F)c(=O)n1 [Gemcitabine] (first compound max 10 µM, 7x7, partner max 0.3 µM)	0.79
CC(=O)Nc1cccc(-n2c(=O)n(C3CC3)c(=O)c3c(Nc4ccc(I)cc4F)n(C)c(=O)c(C)c32)c1 [Trametinib] + Cc1nc(-c2cn3c(n2)-c2ccc(-c4cnn(C(C)(C)C(N)=O)c4)cc2OCC3)n(C(C)C)n1 [Taselisib] (first compound max 1 µM, 7x7, partner max 10 µM)	0.726
C=CCn1c(=O)c2cnc(Nc3ccc(N4CCN(C)CC4)cc3)nc2n1-c1cccc(C(C)(C)O)n1 [AZD1775] + O=C(c1cc(Cc2n[nH]c(=O)c3ccccc23)ccc1F)N1CCN(C(=O)C2CC2)CC1 [Olaparib] (first compound max 1 µM, partner max 10 µM)	0.362
